For each entry below, report its Non Amp - AMP (POC) 10 uM value.
Tested on: ovarian cancer cells with (OVCAR8, OVCAR4) or without (OVSAHO, CAOV3) MYC-HSF1 amplification
Experiment: Epigenetic inhibitor drug screen, cell viability (Cell Titer Blue)
Assay type: cell-based
Settings: 10 uM, 48 hrs; average relative cell viability (vs 1% DMSO) of non-amplified cells (OVSAHO, CAOV3) minus that of MYC-HSF1 amplified cells (OVCAR8, OVCAR4); positive = greater response in amplified cells
Please respond with the number in POC and leave the unit unwritten.

Incoming: Sample NC(=O)c1cccc2[nH]c(-c3ccc([C@@H]4CCCN4)cc3F)nc12 — what was its Non Amp - AMP (POC) 10 uM?
Outgoing: 13.6

Incoming: Request the reported Non Amp - AMP (POC) 10 uM associated with CN(C)CCCCC(=O)Nc1ccc(NC(=S)NC(=O)c2ccc(C(C)(C)C)cc2)cc1
Outgoing: 0.07933

Incoming: Name the reported Non Amp - AMP (POC) 10 uM value associated with the compound COc1cc(Nc2ncc3c(n2)-c2ccc(Cl)cc2C(c2c(F)cccc2OC)=NC3)ccc1C(=O)O
Outgoing: −25.51

Incoming: Which Non Amp - AMP (POC) 10 uM value belongs to C[C@@H]1CC(=O)Nc2cccc(-c3ccc4c(c3)c(-c3cnn(C)c3)nn4C)c2N1 ?
Outgoing: −2.546

Incoming: What value of measured Non Amp - AMP (POC) 10 uM is listed for NC(=O)c1cccnc1 [Nicotinamide] ?
Outgoing: −2.471

Incoming: Given CCCCCCCCCC(=O)N[C@@H](Cc1c[nH]c2ccccc12)C(=O)N[C@H](CC(N)=O)C(=O)N[C@@H](CC(=O)O)C(=O)N[C@@H]1C(=O)NCC(=O)N[C@@H](CCCN)C(=O)N[C@@H](CC(=O)O)C(=O)N[C@H](C)C(=O)N[C@@H](CC(=O)O)C(=O)NCC(=O)N[C@H](CO)C(=O)N[C@@H]([C@H](C)CC(=O)O)C(=O)N[C@@H](CC(=O)c2ccccc2N)C(=O)O[C@@H]1C , state its recorded Non Amp - AMP (POC) 10 uM.
Outgoing: 3.207

Incoming: Request the reported Non Amp - AMP (POC) 10 uM associated with CN1CCN(C(=O)CN[C@H]2C[C@@H]2c2ccc(OCc3ccccc3)cc2)CC1.Cl.Cl [RN-1 (hydrochloride)]
Outgoing: −2.198

====

Tested on: ovarian cancer cells with (OVCAR8, OVCAR4) or without (OVSAHO, CAOV3) MYC-HSF1 amplification
Assay: Epigenetic inhibitor drug screen, cell viability (Cell Titer Blue)
Type: cell-based
Conditions: 10 uM, 48 hrs; average relative cell viability (vs 1% DMSO) of non-amplified cells (OVSAHO, CAOV3) minus that of MYC-HSF1 amplified cells (OVCAR8, OVCAR4); positive = greater response in amplified cells
assay metric: Non Amp - AMP (POC) 10 uM
# number only, unit POC dropped from output

Incoming: Need Non Amp - AMP (POC) 10 uM, item COc1cc2ncnc(Nc3ccc(O)cc3)c2cc1OC [JANEX-1]
Outgoing: −13.67

Incoming: Given the compound COCCCn1c(N)c(C(=O)NC2CCCC2)c2nc3ccccc3nc21 [CAY10591] , what is its reported Non Amp - AMP (POC) 10 uM?
Outgoing: 11.91

Incoming: Return reported Non Amp - AMP (POC) 10 uM; argument: COc1cc2c(NC3CCN(CC4CCCCC4)CC3)nc(N3CCCN(C(C)C)CC3)nc2cc1OCCCN1CCCCC1 [UNC 0631]
Outgoing: 34.73

Incoming: Fill in the blank: the reported Non Amp - AMP (POC) 10 uM of BrC1C(Br)C(Br)C(Br)C(Br)C1Br (centres unmarked) [1,2,3,4,5,6-Hexabromocyclohexane] is ____.
Outgoing: −13.98

Incoming: I have this compound here, COC(=O)CNC(=O)C(=O)OC [DMOG] , and I need its recorded Non Amp - AMP (POC) 10 uM.
Outgoing: −8.654

Incoming: Find the recorded Non Amp - AMP (POC) 10 uM belonging to CC(C)N(CCCNC(=O)Nc1ccc(C(C)(C)C)cc1)C[C@H]1O[C@@H](n2ccc3c(N)ncnc32)[C@H](O)[C@@H]1O.O=CO [EPZ004777 (formate)] and report it.
Outgoing: 10.91

Incoming: Look at this compound and give its reported Non Amp - AMP (POC) 10 uM. Nc1ncnc2c1ncn2[C@@H]1O[C@H](C[C@@H](N)CC[C@H](N)C(=O)O)[C@@H](O)[C@H]1O [Sirefungin]
Outgoing: 12.42

Incoming: Reported Non Amp - AMP (POC) 10 uM for O=C(O)c1ccc(Nc2ncc3c(n2)-c2ccc(Cl)cc2C(c2c(F)cccc2F)=NC3)cc1 [MLN8054] : what is it?
Outgoing: −12.87

Incoming: Reported Non Amp - AMP (POC) 10 uM, compound CCC(CC)n1ccc2c(C(=O)NCc3c(C)cc(C)[nH]c3=O)cc(C#N)cc21 [EI1] : ____
Outgoing: 15.27

Incoming: Look up Non Amp - AMP (POC) 10 uM for this compound: CC(C)(CCCCCC(O)CCCCCC(C)(C)C(=O)O)C(=O)O [ETC-1002]
Outgoing: −2.506

Incoming: Look at this compound and give its reported Non Amp - AMP (POC) 10 uM. O=C(/C=C/c1ccccc1)NC(NC(=S)Nc1ccc(Cl)cc1)C(Cl)(Cl)Cl (centres unmarked) [Sal 003]
Outgoing: −16.28

Incoming: Suppose we examine the compound O=C(O)c1ccccc1Nc1cccc(C(F)(F)F)c1 [Flufenamic acid] ; what Non Amp - AMP (POC) 10 uM value has been reported?
Outgoing: −4.318

Incoming: Consider the compound shown here: C#CCC(CCCCCC)C(=O)O (centres unmarked) [2-hexyl-4-Pentynoic Acid] What is its recorded Non Amp - AMP (POC) 10 uM?
Outgoing: 2.599

Incoming: Request the reported Non Amp - AMP (POC) 10 uM associated with COc1ccc2c(c1)c(C1=C(c3c[nH]c4ccccc34)C(=O)NC1=O)cn2CCCN(C)C [Go 6983]
Outgoing: 14.34

Incoming: What measured Non Amp - AMP (POC) 10 uM goes with COc1ccc(C2(CNC(=O)c3ccc(NC(=O)c4ccco4)cc3)CCOCC2)cc1 [JW 55] ?
Outgoing: −6.598

Incoming: Entry under review: O=C(CCCCCCC(=O)Nc1ccc([C@H]2O[C@@H](CSc3nc(-c4ccccc4)c(-c4ccccc4)o3)C[C@@H](c3ccc(CO)cc3)O2)cc1)NO [Tubacin] . Reported Non Amp - AMP (POC) 10 uM?
Outgoing: −15.59

Incoming: Name the reported Non Amp - AMP (POC) 10 uM value associated with the compound CN1CCC(CNc2ccc3ncc(-c4cccc(OC(F)(F)F)c4)n3n2)CC1 [SGI-1776 free base]
Outgoing: −17.37
